- assay.details: Motesanib plasma pharmacokinetics (LC-MS/MS, noncompartmental)
- Parameters: species or system human
- measurement.context: human, in vivo, week 3; 125 mg QD motesanib + 150 mg QD erlotinib; read-out: AUC0–24, median

[
  {
    "molecule": "CC1(C)CNc2cc(NC(=O)c3cccnc3NCc3ccncc3)ccc21",
    "AUC(0-t), ng·h/mL": 3120
  }
]

###

- assay.details: clinical
- measurement.context: human, in vivo, 100 mg, Mean t1/2, z

[
  {
    "molecule": "C#Cc1cccc(Nc2ncnc3cc(OCCOC)c(OCCOC)cc23)c1",
    "half-life": "17 to 33 h"
  }
]
